- Tested on: VDR homodimer (NR concentration 270 nM)
- assay: PBM binding z-score (relative to random genomic background probes); higher = stronger binding; sequences stand for … in GC…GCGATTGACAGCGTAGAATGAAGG
Known PBM binding z-score of a selection of sequences

TCTTGTAGATCAGCAGGTTAAGAGAGCTGGCCAA	-0.364
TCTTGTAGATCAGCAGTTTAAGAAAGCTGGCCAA	0.0603
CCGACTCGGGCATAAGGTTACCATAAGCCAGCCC	-0.223
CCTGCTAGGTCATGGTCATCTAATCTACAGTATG	0.674
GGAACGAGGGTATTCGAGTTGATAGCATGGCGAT	0.63
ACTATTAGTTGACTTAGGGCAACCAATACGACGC	0.251
CCTAGCAGGCCAGGGTCACGCAAGCATTTCGCTT	1.53
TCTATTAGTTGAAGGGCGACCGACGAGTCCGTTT	1.32
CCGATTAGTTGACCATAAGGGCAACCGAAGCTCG	0.334
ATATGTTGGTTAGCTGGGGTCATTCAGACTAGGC	5.32

Fill in the blank: the reported PBM binding z-score of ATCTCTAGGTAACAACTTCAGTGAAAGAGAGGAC is ____. 0.576

Fill in the blank: the reported PBM binding z-score of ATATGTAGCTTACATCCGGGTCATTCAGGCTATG is ____. 2.18
